I'd be grateful if you could share measured pEC50 for these entries.
- targetDesc: LXRβ (Homo sapiens)
- Construct: Co-transfection expression plasmids, comprising full-length LXRα (pCMX-h LXRα or LXRβ (pCMX-hLXRβ))
- Sequence (P55055 whole entry): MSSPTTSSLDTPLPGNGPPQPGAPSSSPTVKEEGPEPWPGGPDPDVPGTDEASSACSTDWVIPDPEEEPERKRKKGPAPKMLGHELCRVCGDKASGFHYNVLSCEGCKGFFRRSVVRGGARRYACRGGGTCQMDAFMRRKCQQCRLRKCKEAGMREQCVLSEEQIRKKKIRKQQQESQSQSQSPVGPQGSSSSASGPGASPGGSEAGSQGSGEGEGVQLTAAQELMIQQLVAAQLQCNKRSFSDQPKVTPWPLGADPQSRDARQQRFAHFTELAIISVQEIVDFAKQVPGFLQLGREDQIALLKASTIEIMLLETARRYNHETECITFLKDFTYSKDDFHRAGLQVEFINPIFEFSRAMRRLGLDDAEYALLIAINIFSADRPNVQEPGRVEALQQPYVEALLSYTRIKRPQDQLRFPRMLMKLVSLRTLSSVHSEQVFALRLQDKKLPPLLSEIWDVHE
- Sequence (P19793 whole entry partner): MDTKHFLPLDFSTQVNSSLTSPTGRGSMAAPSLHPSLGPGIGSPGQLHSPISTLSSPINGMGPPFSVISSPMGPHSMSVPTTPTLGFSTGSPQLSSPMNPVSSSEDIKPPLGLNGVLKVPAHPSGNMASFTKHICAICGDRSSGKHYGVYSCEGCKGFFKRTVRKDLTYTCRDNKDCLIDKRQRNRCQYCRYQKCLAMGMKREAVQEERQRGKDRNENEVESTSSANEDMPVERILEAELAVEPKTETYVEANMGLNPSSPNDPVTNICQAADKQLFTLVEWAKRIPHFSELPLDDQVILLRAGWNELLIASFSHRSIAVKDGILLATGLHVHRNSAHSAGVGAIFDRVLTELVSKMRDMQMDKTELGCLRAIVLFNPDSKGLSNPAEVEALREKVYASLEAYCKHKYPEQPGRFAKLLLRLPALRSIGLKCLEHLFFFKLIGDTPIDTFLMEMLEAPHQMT
- assayOverview: LXR/LXRE co-transfection assay (luciferase reporter) in CV-1 cells, LXRβ
- reportedConditions: CV-1 cells transfected with pCMX-hLXRβ and LXREx1-Tk-Luciferase, 20 hours incubation, read-out: LXRbeta agonism EC50
# reply with the number alone; pEC50 is -log10 of concentration in mol/L

Measured on LXRβ (Homo sapiens), Cc1nc(-c2ccc(OC(F)(F)F)cc2)c(-c2cc(-c3cc(F)c(CO)c(S(C)(=O)=O)c3)ccc2-n2ccc(C(C)(C)C#N)n2)o1 [Example 377] has a documented pEC50 of 7.55

Response field pEC50 (LXRβ (Homo sapiens)) for item Cc1nc(-c2ccc(OC(F)(F)F)cc2)c(-c2cc(-c3cc(Cl)c(CO)c(S(C)(=O)=O)c3)ccc2-c2cc(C(F)(F)F)nn2C)o1 [Example 125] : 6.75

Lab entry: LXRβ (Homo sapiens) assay, molecule Cc1nc(-c2ccc(OC(F)(F)F)cc2)c(-c2cc(-c3cc(F)c(CO)c(S(C)(=O)=O)c3)ccc2-n2cc(C#N)c(C3CC3)n2)o1 [Example 446] , pEC50 = 7.52

Assay LXRβ (Homo sapiens), sample Cc1nc(-c2ccc3c(c2)OC(F)(F)O3)c(-c2cc(-c3cc(F)c(CO)c(S(C)(=O)=O)c3)ccc2-c2cc(C(F)(F)C(=O)O)nn2C)o1 [Example 75] , pEC50 read: 5.12

For the molecule Cc1nc(-c2ccc(OC(F)(F)F)cc2)c(-c2cc(-c3cc(F)c(CO)c(S(C)(=O)=O)c3)ccc2-n2ccc(CO)n2)o1 [Example 322] , the measured pEC50 on LXRβ (Homo sapiens) was 5.95

Cc1nc(-c2ccc(OC(F)F)c(F)c2)c(-c2cc(-c3cccc(S(C)(=O)=O)c3)ccc2-c2cc(C(F)(F)CO)nn2C)o1 [Example 76] on LXRβ (Homo sapiens) gives pEC50 = 7.08

Reported LXRβ (Homo sapiens) pEC50 for item Cn1nc(C(F)(F)F)cc1-c1ccc(-c2cccc(C(C)(C)C(N)=O)c2)cc1-n1nncc1-c1ccc(OC(F)(F)F)cc1 [Example 12] was 7.13

Observed pEC50, LXRβ (Homo sapiens), Cc1nc(-c2ccc3c(c2)OC(F)(F)O3)c(-c2cc(-c3cccc(S(C)(=O)=O)c3)ccc2-c2cc(CO)nn2C)o1 [Example 98] : 6.59

Record Cc1nc(-c2ccc3c(c2)OC(F)(F)O3)c(-c2cc(-c3cccc(C(C)(C)C(N)=O)c3)ccc2-n2ccc(C(N)=O)n2)o1 [Example 364] has LXRβ (Homo sapiens) pEC50 equal to 6.02

Tested on LXRβ (Homo sapiens), the item Cc1nc(-c2cc(-c3cccc(S(C)(=O)=O)c3)ccc2-n2ccc(C(F)(F)F)n2)c(-c2ccc(OC(F)F)c(Cl)c2)o1 [Example 397] showed pEC50 equal to 6.71

The molecule Cc1nc(-c2ccc(OC(F)(F)F)cc2)c(-c2cc(-c3cccc(S(C)(=O)=O)c3)ccc2-n2nc(C(F)(F)F)cc2C2CC2)o1 [Example 324] on LXRβ (Homo sapiens): pEC50 was 5.91

Known value: LXRβ (Homo sapiens) pEC50 of the molecule Cc1nc(-c2ccc3c(c2)OC(F)(F)O3)c(-c2cc(-c3cc(F)c(CO)c(S(C)(=O)=O)c3)ccc2-c2cc(C(F)(F)C(=O)NCC(F)(F)F)nn2C)o1 [Example 90] equals 7.24

The reported LXRβ (Homo sapiens) pEC50 of Cc1nc(-c2ccc3c(c2)OC(F)(F)O3)c(-c2cc(-c3cc(F)c(CO)c(S(C)(=O)=O)c3)ccc2-n2cc(Cl)c(C(F)(F)F)n2)o1 [Example 420] is 8.15

Record for Cc1nc(-c2cc(F)c(OC(F)F)c(F)c2)c(-c2cc(-c3cccc(S(C)(=O)=O)c3)ccc2-n2ccc(C(F)(F)F)n2)o1 [Example 351] under target or system LXRβ (Homo sapiens): pEC50 reported as 7.21

# pEC50 measured on LXRβ (Homo sapiens) for item Cc1nc(-c2cc(-c3ccc(CO)c(S(C)(=O)=O)c3)ccc2-n2nc(C(F)(F)F)cc2C)c(-c2ccc(OC(F)(F)F)cc2)o1 [Example 387] = 7.09

LXRβ (Homo sapiens) assay, molecule Cn1nc(C(F)(F)C(=O)NC(C)(C)CO)cc1-c1ccc(-c2cccc(S(C)(=O)=O)c2)cc1-n1nncc1-c1ccc(OC(F)(F)F)cc1 [Example 28] , recorded pEC50 = 6.30

Item Cc1nc(-c2ccc3c(c2)OC(F)(F)O3)c(-c2cc(-c3cccc(S(C)(=O)=O)c3)ccc2-c2cc(C(C)O)nn2C)o1 (stereo not drawn) [Example 102] ; assay system LXRβ (Homo sapiens); pEC50 reported as 6.64

Here Cc1nc(-c2ccc(OC(F)(F)F)cc2)c(-c2cc(-c3cc(F)c(CO)c(S(C)(=O)=O)c3)ccc2-n2cc(C(N)=O)c(C3CC3)n2)o1 [Example 448] was tested on LXRβ (Homo sapiens), and its pEC50 came to 6.55

Form field pEC50 for item Cc1nc(-c2cc(-c3cc(F)c(CO)c(S(C)(=O)=O)c3)ccc2-n2ccc(C(F)(F)F)n2)c(-c2ccc(OC(F)(F)F)cc2)o1 [Example 413] on LXRβ (Homo sapiens): 7.28

Readout pEC50 for Cn1nc(C(F)(F)F)cc1-c1ccc(-c2cc(F)c(CO)c(S(C)(=O)=O)c2)cc1-n1nncc1-c1ccc(OC(F)(F)F)cc1 [Example 15] , test system LXRβ (Homo sapiens), was 7.96

The value of pEC50 recorded for CNC(=O)C(F)(F)c1cc(-c2ccc(-c3cc(F)cc(S(C)(=O)=O)c3)cc2-c2oc(C)nc2-c2ccc3c(c2)OC(F)(F)O3)n(C)n1 [Example 85] when tested on LXRβ (Homo sapiens) reads 6.23

Field pEC50 (system: LXRβ (Homo sapiens)) for entry Cc1nc(-c2ccc(OC(F)F)c(F)c2)c(-c2cc(-c3cccc(S(C)(=O)=O)c3)ccc2-n2cc(Cl)c(C(F)(F)F)n2)o1 [Example 433] = 7.30

Reported LXRβ (Homo sapiens) pEC50 for item Cc1nc(-c2cc(-c3cccc(S(C)(=O)=O)c3)ccc2-n2ccc(C(F)(F)F)n2)c(-c2cc(F)c(OC(F)F)c(F)c2)o1 [Example 409] was 7.35

Entry Cc1cc(C(F)(F)F)nn1-c1ccc(-c2cccc(S(C)(=O)=O)c2)cc1-n1nncc1-c1ccc(OC(F)(F)F)cc1 [Example 300] : pEC50 on LXRβ (Homo sapiens) = 6.82
